Entry source: patent US9125913B2

- Test system: GST-Bcl-2
- PROTOCOL_TEXT: TR-FRET binding assay, Bcl-2
- CONDITIONS_USED: TR-FRET Ki values
EXPERIMENTAL_ENDPOINT: Binding selectivity ratio (Bcl-XL Ki/Bcl-2 Ki)
# respond with the number and nothing more

// known answers, use as guide
CN(C)CCCNc1ccc(S(=O)(=O)NC(=O)c2ccc(N3CCN(CC4=C(c5ccc(Cl)cc5)CC(C)(C)CC4)CC3)cc2Oc2ccc3[nH]ccc3c2)cc1[N+](=O)[O-]
59.8
O=C(NS(=O)(=O)c1ccc(NCCCN2CCCC2)c([N+](=O)[O-])c1)c1ccc(N2CCN(Cc3cc(OCCN4CCOCC4)ccc3-c3ccc(Cl)cc3)CC2)cc1Oc1ccc2[nH]ccc2c1
238.9
O=C(NS(=O)(=O)c1ccc(NCC2CCOCC2)c([N+](=O)[O-])c1)c1ccc(N2CCN(Cc3cc(CCN4CCCC4)ccc3-c3ccc(Cl)cc3)CC2)cc1Oc1cccc2[nH]ccc12
4103.8

Now for the molecule whose Binding selectivity ratio (Bcl-XL Ki/Bcl-2 Ki) we want.
With GST-Bcl-2 as the test system, CC1(C)CCC(CN2CCN(c3ccc(C(=O)NS(=O)(=O)c4ccc(NC5CCN(CCO)CC5)c([N+](=O)[O-])c4)c(Oc4cccc5[nH]ccc45)c3)CC2)=C(c2ccc(Cl)cc2)C1 showed Binding selectivity ratio (Bcl-XL Ki/Bcl-2 Ki) of 125.2
